# target desc: BRM (Homo sapiens)
# test description: Immunofluorescence assay for BRM degradation in SW1573 cells
# Assay type: cell-based
# Set-up: treated overnight at 4° C. with either BRM primary antibody (Cell signaling Cat #11966) or BRG primary antibody; endogenous in cells; host or cells: SW1573
# condition description: 20 hours incubation, immunofluorescence mean nuclear signal, read-out: BRM IF Degradation IC50
measured attribute: DC50

Q: For the compound shown here, Nc1nnc(-c2ccccc2O)cc1N1CC2CCC(C1)N2c1ccnc(C#CCN2C3CCC2(CO)CC3)c1 , give the reported DC50.
A: < 0.01 µM

Q: For the compound shown here, CN1CCOC2(C1)CN(CC#Cc1cc(N3C4CCC3CN(c3cc(-c5ccccc5O)nnc3N)C4)ccn1)C2 , give the reported DC50.
A: > 0.1 µM

Q: For the compound shown here, Nc1nnc(-c2ccccc2O)cc1N1CC2CCC(C1)N2c1ccnc(C#CCN2CC3CCOC3C2)c1 (stereo not shown) , give the reported DC50.
A: < 0.01 µM

----------
Measured Dmax values are reported for all entries that follow.
# target desc: BRG1 (Homo sapiens)
# Construct: either BRM primary antibody (Cell signaling Cat #11966) or BRG primary antibody (Abcam, ab 110641); endogenous in cells; host or cells: SW1573
# test description: Immunofluorescence assay for BRG1 degradation in SW1573 cells
# Assay type: cell-based
# condition description: SW1573, 20 h, 20 hours incubation, normalized to a known degrader control, read-out: BRG1 IF Degradation Sinf (%)

Consider the worked cases shown below.
Nc1nnc(-c2ccccc2O)cc1N1CC2CCC(C1)N2c1ccnc(C#CCN2CC3CCCCC3C2)c1 (centres unmarked): 30 to 70%
CC[C@@H]1COCCN1CC#Cc1cc(N2C3CCC2CN(c2cc(-c4ccccc4O)nnc2N)C3)ccn1: 0 to 30%
Nc1nnc(-c2ccccc2O)cc1N1CC2CCC(C1)N2c1ccnc(C#CCN2CC3(CCCC3)C2)c1: 30 to 70%
CC1(O)CCN(CC#Cc2cc(N3C4CCC3CN(c3cc(-c5ccccc5O)nnc3N)C4)ccn2)C1 (centres unmarked): 30 to 70%
Nc1nnc(-c2ccccc2O)cc1N1CC2CCC(C1)N2c1ccnc(C#CCN2CC3(CCCCC3)C2)c1: 30 to 70%
Nc1nnc(-c2ccccc2O)cc1N1CC2CCC(C1)N2c1ccnc(C#CCN2C[C@H]3CCO[C@H]3C2)c1: 0 to 30%
Nc1nnc(-c2ccccc2O)cc1N1CC2CCC(C1)N2c1ccnc(C#CCN2CCCCC(O)(CF)C2)c1 (centres unmarked): 0 to 30%
Nc1nnc(-c2ccccc2O)cc1N1CC2CCC(C1)N2c1ccnc(C#CCN2CCc3ccccc3CC2)c1: 30 to 70%

Q: For the compound shown here, Nc1nnc(-c2ccccc2O)cc1N1CC2CCC(C1)N2c1ccnc(C#CCN2C3CCC2(CO)CC3)c1 , give the reported Dmax.
A: 30 to 70%

Q: For the compound shown here, Nc1nnc(-c2ccccc2O)cc1N1CC2CCC(C1)N2c1ccnc(C#CCN2CCN3CCCC3C2)c1 (centres unmarked) , give the reported Dmax.
A: 0 to 30%

----------
# target desc: BRM (Homo sapiens, UniProt P51531)
# Sequence (P51531 whole entry): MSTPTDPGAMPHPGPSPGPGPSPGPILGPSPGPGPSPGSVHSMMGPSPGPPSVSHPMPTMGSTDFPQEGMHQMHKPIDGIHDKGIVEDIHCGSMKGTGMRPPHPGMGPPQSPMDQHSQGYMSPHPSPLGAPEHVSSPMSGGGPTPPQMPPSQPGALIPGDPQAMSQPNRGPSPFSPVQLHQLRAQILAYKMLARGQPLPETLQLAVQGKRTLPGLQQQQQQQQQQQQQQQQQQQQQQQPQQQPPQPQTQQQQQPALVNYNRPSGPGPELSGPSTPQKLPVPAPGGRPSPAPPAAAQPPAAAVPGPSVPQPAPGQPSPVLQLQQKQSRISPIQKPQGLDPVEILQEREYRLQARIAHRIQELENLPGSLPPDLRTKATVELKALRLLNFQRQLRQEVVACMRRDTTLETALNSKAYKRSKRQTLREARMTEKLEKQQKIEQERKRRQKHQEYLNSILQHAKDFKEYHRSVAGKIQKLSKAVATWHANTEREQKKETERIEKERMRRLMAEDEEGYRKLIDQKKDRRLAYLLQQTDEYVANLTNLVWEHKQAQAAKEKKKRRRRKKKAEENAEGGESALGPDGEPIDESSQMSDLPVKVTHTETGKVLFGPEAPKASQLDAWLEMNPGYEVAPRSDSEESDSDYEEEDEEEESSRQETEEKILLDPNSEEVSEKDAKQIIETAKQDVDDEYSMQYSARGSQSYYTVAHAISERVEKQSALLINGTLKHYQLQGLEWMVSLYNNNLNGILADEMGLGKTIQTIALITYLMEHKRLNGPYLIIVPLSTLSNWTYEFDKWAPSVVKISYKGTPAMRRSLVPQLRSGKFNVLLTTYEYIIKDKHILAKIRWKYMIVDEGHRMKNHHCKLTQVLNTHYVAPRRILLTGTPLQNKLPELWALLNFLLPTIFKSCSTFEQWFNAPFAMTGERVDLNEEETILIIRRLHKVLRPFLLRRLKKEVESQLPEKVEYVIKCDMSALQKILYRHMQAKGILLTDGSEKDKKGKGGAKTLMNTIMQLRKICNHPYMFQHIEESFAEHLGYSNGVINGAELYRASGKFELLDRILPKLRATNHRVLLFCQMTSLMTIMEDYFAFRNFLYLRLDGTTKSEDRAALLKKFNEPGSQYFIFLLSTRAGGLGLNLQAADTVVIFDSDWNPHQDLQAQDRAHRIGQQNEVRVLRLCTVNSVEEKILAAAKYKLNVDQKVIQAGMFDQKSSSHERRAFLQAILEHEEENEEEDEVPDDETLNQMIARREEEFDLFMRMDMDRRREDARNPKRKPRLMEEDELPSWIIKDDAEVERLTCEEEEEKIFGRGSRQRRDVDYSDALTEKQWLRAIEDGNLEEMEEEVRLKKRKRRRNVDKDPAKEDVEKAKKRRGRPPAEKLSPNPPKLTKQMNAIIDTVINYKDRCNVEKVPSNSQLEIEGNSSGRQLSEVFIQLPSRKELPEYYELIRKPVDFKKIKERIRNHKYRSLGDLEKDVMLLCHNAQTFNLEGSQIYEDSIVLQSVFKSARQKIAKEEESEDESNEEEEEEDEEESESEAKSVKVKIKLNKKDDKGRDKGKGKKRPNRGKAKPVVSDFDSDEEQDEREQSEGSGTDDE
# test description: Immunofluorescence assay for BRM degradation in SW1573 cells
# Format: cell-based
# Design: treated overnight at 4° C. with either BRM primary antibody (Cell signaling Cat #11966) or BRG primary antibody; endogenous in cells; host or cells: SW1573
# condition description: 20 hours incubation, immunofluorescence mean nuclear signal, read-out: BRM IF Degradation IC50
measured attribute: DC50

Nc1nnc(-c2ccccc2O)cc1N1CC2CCC(C1)N2c1ccnc(C#CCC2CCCCN2)c1 (stereo not drawn): 10 to 100 nM

Q: For the compound shown here, Nc1nnc(-c2ccccc2O)cc1N1CC2CCC(C1)N2c1ccnc(C#CCN2CCOC(F)(F)C2)c1 , give the reported DC50.
A: < 10 nM

Q: For the compound shown here, CN1C[C@@H]2C[C@H]1CN2CC#Cc1cc(N2C3CCC2CN(c2cc(-c4ccccc4O)nnc2N)C3)ccn1 , give the reported DC50.
A: 10 to 100 nM

Q: For the compound shown here, NCCCCCCC#Cc1cc(N2C3CCC2CN(c2cc(-c4ccccc4O)nnc2N)C3)ccn1 , give the reported DC50.
A: 10 to 100 nM

Q: For the compound shown here, Nc1nnc(-c2ccccc2O)cc1N1CC2CCC(C1)N2c1ccnc(C#CCN2CCCCC23CC3)c1 , give the reported DC50.
A: < 10 nM

Q: For the compound shown here, Nc1nnc(-c2ccccc2O)cc1N1CC2CCC(C1)N2c1ccnc(C#CCN2CC3CCOCC3C2)c1 (stereo not drawn) , give the reported DC50.
A: < 10 nM

----------
# target desc: BRG1 (Homo sapiens, UniProt P51532)
# Construct: either BRM primary antibody (Cell signaling Cat #11966) or BRG primary antibody (Abcam, ab 110641); endogenous in cells; host or cells: SW1573
# Sequence (P51532 whole entry): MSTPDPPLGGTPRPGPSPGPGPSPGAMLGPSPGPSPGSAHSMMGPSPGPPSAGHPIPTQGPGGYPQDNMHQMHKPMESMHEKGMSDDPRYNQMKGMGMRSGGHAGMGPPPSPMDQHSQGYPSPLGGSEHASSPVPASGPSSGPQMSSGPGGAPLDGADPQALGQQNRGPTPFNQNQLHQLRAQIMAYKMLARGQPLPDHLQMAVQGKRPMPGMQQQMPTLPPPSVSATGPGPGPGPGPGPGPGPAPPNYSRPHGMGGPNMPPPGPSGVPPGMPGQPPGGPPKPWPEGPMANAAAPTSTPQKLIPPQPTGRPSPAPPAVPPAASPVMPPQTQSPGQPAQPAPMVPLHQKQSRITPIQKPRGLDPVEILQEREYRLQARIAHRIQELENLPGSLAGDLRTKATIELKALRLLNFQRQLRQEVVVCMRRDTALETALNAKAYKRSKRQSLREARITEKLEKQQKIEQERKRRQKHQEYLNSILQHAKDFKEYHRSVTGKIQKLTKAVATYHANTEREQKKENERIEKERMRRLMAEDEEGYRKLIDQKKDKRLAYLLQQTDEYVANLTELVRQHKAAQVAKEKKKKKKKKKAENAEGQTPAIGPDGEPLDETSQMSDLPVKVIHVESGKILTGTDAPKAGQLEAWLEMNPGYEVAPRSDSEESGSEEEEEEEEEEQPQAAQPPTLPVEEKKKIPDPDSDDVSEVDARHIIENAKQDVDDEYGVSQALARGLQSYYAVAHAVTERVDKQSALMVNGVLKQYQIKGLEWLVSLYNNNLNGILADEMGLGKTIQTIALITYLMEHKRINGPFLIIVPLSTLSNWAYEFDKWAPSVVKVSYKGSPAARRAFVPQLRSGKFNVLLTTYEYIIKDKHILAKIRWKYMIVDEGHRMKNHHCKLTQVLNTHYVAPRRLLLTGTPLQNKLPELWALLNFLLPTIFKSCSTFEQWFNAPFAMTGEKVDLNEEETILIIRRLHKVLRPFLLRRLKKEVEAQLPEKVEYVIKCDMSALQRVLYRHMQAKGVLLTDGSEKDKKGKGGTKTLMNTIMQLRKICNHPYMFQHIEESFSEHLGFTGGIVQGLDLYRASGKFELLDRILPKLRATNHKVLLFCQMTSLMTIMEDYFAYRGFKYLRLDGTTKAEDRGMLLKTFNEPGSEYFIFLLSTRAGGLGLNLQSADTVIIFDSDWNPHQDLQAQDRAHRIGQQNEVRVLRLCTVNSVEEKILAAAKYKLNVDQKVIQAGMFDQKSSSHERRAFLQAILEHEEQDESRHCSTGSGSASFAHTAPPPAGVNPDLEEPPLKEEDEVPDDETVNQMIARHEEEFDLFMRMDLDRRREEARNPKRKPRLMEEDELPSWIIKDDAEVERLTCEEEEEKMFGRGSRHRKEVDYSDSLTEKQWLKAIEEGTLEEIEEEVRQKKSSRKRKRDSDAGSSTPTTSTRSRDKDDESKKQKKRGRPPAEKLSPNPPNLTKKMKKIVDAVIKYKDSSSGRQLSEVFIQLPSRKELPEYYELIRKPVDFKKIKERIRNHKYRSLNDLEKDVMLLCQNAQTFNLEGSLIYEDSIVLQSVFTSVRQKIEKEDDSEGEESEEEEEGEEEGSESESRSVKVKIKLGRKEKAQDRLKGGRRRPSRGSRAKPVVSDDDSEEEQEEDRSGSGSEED
# test description: Immunofluorescence assay for BRG1 degradation in SW1573 cells
# Format: cell-based
# condition description: 20 hours incubation, immunofluorescence mean nuclear signal, read-out: BRG1 IF Degradation IC50
measured attribute: DC50

Nc1nnc(-c2ccccc2O)cc1N1CC2CCC(C1)N2c1ccnc(C#CCN2CC3COCC(C2)C3O)c1 (stereo not drawn) [Compound 83]: 10 to 100 nM
Nc1nnc(-c2ccccc2O)cc1N1CC2CCC(C1)N2c1ccnc(C#CCN2CCCC(C(F)(F)F)CC2)c1 (stereo not drawn) [Compound 209]: < 10 nM

Proceeding to the next compound to report its DC50.
Q: For the compound shown here, Nc1nnc(-c2ccccc2O)cc1N1CC2CCC(C1)N2c1ccnc(C#CCN2CCOC3(CCC3)C2)c1 [Compound 77] , give the reported DC50.
A: > 100 nM

----------
# target desc: BRM (Homo sapiens)
# test description: Immunofluorescence assay for BRM degradation in SW1573 cells
# Assay type: cell-based
# Parameters: treated overnight at 4° C. with either BRM primary antibody (Cell signaling Cat #11966) or BRG primary antibody; endogenous in cells; host or cells: SW1573
# condition description: 20 hours incubation, immunofluorescence mean nuclear signal, read-out: BRM IF Degradation IC50
Measured DC50 values are reported for all entries that follow.

Nc1nnc(-c2ccccc2O)cc1N1CC2CCC(C1)N2c1ccnc(C#CCN2CCC(F)C2)c1 (stereo not drawn): < 10 nM
Nc1nnc(-c2ccccc2O)cc1N1CC2CCC(C1)N2c1ccnc(C#CCN2CCC23CCOC3)c1 (stereo not drawn) [Compound 167]: < 10 nM
Nc1nnc(-c2ccccc2O)cc1N1CC2CCC(C1)N2c1ccnc(C#CCN2CC3CCC3C2)c1 (stereo not drawn): < 10 nM
Cn1cc(C#Cc2cc(N3C4CCC3CN(c3cc(-c5ccccc5O)nnc3N)C4)ccn2)cn1: > 100 nM
Nc1nnc(-c2ccccc2O)cc1N1CC2CCC(C1)N2c1ccnc(C#CCN2CC(c3ccncn3)C2)c1: < 10 nM
Nc1nnc(-c2ccccc2O)cc1N1CC2CCC(C1)N2c1ccnc(C#CCN2CCn3ccnc3C2)c1: 10 to 100 nM
Nc1nnc(-c2ccccc2O)cc1N1CC2CCC(C1)N2c1ccnc(C#CCN2CCC[C@@H]3CC[C@@H]32)c1: < 10 nM
CC1(C)CN(CC#Cc2cc(N3C4CCC3CN(c3cc(-c5ccccc5O)nnc3N)C4)ccn2)C1: < 10 nM
Nc1nnc(-c2ccccc2O)cc1N1CC2CCC(C1)N2c1ccnc(C#CCN2CC3CC2C3)c1: < 10 nM
Nc1nnc(-c2ccccc2O)cc1N1CC2CCC(C1)N2c1ccnc(C#CCCCCO)c1: > 100 nM

Q: What reported DC50 corresponds to CC1CN(CC#Cc2cc(N3C4CCC3CN(c3cc(-c5ccccc5O)nnc3N)C4)ccn2)C1 on BRM (Homo sapiens)?
A: < 10 nM

Q: What reported DC50 corresponds to Nc1nnc(-c2ccccc2O)cc1N1CC2CCC(C1)N2c1ccnc(C#CCN2CCCCC2)c1 on BRM (Homo sapiens)?
A: < 10 nM

Q: What reported DC50 corresponds to Nc1nnc(-c2ccccc2O)cc1N1CC2CCC(C1)N2c1ccnc(C#CCN2CCCOCC2)c1 on BRM (Homo sapiens)?
A: < 10 nM

Q: What reported DC50 corresponds to COC(=O)C1CCS(=O)(=O)C12CN(CC#Cc1cc(N3C4CCC3CN(c3cc(-c5ccccc5O)nnc3N)C4)ccn1)C2 (stereo not drawn) on BRM (Homo sapiens)?
A: > 100 nM

Q: What reported DC50 corresponds to CC1CCCCN(CC#Cc2cc(N3C4CCC3CN(c3cc(-c5ccccc5O)nnc3N)C4)ccn2)C1 (stereo not drawn) on BRM (Homo sapiens)?
A: < 10 nM

Q: What reported DC50 corresponds to Nc1nnc(-c2ccccc2O)cc1N1CC2CCC(C1)N2c1ccnc(C#CCN2C[C@@H]3[C@@H](CO)[C@@H]3C2)c1 on BRM (Homo sapiens)?
A: 10 to 100 nM

Q: What reported DC50 corresponds to Nc1nnc(-c2ccccc2O)cc1N1CC2CCC(C1)N2c1ccnc(C#CCN2CC3(CCCCO3)C2)c1 on BRM (Homo sapiens)?
A: < 10 nM
